Target: hBChE (recombinant human isoform) (Homo sapiens, UniProt P06276)
Sequence (P06276 29-602): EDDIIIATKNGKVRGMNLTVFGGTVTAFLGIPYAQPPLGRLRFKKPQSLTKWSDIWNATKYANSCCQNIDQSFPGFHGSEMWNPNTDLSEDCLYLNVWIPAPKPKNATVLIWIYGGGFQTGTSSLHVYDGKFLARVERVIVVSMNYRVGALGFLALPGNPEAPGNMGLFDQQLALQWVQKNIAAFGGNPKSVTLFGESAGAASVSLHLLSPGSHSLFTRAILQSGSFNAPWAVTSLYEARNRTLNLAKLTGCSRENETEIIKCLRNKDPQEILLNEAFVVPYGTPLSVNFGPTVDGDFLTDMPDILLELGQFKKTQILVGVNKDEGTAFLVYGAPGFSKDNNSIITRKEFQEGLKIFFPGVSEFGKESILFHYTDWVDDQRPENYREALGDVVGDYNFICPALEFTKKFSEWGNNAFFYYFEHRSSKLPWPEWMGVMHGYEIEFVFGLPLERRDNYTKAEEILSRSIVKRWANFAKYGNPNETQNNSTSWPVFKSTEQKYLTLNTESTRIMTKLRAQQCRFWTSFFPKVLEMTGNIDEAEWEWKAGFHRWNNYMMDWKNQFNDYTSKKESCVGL
Test: biochemical
Settings: recombinant human isoform, means ± SD of three measurements
observable: IC50

| query_smiles | observed_result |
| --- | --- |
| C[C@@H]1O[C@@H](n2cnc3c(NC(=O)c4ccccc4)ncnc32)[C@H](OCc2ccccc2)[C@H](OCc2ccccc2)[C@H]1OCc1ccccc1 | > 5 µM |
| C[C@@H]1O[C@@H](n2cnc3c(N(Cc4ccccc4)C(=O)c4ccccc4)ncnc32)[C@H](OCc2ccccc2)[C@H](OCc2ccccc2)[C@H]1OCc1ccccc1 | > 20 µM |
| C[C@@H]1O[C@H](n2cnc3c(NC(=O)c4ccccc4)ncnc32)[C@H](OCc2ccccc2)[C@H](OCc2ccccc2)[C@H]1OCc1ccccc1 | > 5 µM |

----------
# Lookup of reported pIC50 keyed by entry
Molecular target: eqBChE (horse serum butyrylcholinesterase) (Equus caballus, UniProt P81908)
Construct: eqBChE (horse serum BChE)
Sequence (P81908 whole entry): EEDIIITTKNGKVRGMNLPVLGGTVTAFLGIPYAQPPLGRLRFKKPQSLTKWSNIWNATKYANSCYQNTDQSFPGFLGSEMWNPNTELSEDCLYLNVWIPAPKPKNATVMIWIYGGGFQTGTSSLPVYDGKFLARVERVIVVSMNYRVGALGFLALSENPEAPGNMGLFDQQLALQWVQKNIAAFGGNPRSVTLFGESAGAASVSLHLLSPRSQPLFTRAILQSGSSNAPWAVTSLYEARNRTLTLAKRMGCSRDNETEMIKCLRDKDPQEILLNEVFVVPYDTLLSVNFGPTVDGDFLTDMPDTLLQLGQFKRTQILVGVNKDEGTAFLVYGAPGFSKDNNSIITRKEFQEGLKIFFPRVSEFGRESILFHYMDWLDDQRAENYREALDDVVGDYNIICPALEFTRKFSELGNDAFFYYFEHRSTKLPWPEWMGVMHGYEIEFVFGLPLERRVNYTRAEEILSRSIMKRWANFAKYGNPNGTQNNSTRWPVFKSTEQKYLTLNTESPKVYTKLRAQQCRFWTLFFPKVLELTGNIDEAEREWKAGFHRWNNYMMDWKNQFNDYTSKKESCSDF
Assay: biochemical
Settings: horse serum BChE, means ± SD of three measurements
pIC50: −log10 of the molar value.
observable: pIC50

| query_smiles | observed_result |
| --- | --- |
| C[C@@H]1O[C@H](n2cnc3c(NC(=O)c4ccccc4)ncnc32)[C@H](OCc2ccccc2)[C@H](OCc2ccccc2)[C@H]1OCc1ccccc1 | < 5.30 |
| O=C(Nc1ncnc2c1ncn2[C@H]1O[C@H](COCc2ccccc2)[C@@H](OCc2ccccc2)[C@H](OCc2ccccc2)[C@@H]1OCc1ccccc1)c1ccccc1 | < 4.70 |
| CC(=O)O[C@@H]1[C@@H](OC(C)=O)[C@H](C)O[C@@H](n2cnc3c(NC(=O)c4ccccc4)ncnc32)[C@@H]1OC(C)=O | < 4.70 |
| C[C@H]1O[C@H](n2cnc3c(NC(=O)c4ccccc4)ncnc32)[C@@H](OCc2ccccc2)[C@@H](OCc2ccccc2)[C@@H]1OCc1ccccc1 | < 4.70 |
| C[C@@H]1O[C@@H](n2cnc3c(NC(=O)c4ccccc4)ncnc32)[C@H](OCc2ccccc2)[C@H](OCc2ccccc2)[C@H]1OCc1ccccc1 | < 5.30 |
